The entries below are paired with their reported self-cleavage kobs at 2500 uM GlcN6P.
B1: glmS ribozyme (parent)
chain: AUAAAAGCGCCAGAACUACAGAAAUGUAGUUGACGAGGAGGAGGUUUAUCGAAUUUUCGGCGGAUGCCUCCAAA

Variants of: B1
Experiment: self-cleavage kobs at 2500 uM GlcN6P; higher = faster cleavage; RNA array
Settings: with glucosamine-6-phosphate
This sample holds only a part of the variants without activity.
Dear colleague, please return just the value in s⁻¹, with no unit written.

| mut | observable | value.measured |
| --- | --- | --- |
| A14G G60A | self-cleavage kobs at 2500 uM GlcN6P | 4.34e-05 |
| G44A U65A | self-cleavage kobs at 2500 uM GlcN6P | 0.000133 |
| G29C C71A | self-cleavage kobs at 2500 uM GlcN6P | 0.000119 |
| G41A A42C | self-cleavage kobs at 2500 uM GlcN6P | 6.51e-05 |
| G44A U56G | self-cleavage kobs at 2500 uM GlcN6P | 0.000188 |

The variant C11A C70U showed self-cleavage kobs at 2500 uM GlcN6P equal to 0.000168

Recorded result, A12C G13A A14G U31G , self-cleavage kobs at 2500 uM GlcN6P: 7.54e-05

Record U45A , field self-cleavage kobs at 2500 uM GlcN6P: 0.0529

Field self-cleavage kobs at 2500 uM GlcN6P (entry A39G G40C ) reads 0.000101

The measured self-cleavage kobs at 2500 uM GlcN6P associated with A12U A53U reads 0.0274
